- Tested on: transglutaminase (TGase)
- MEASUREMENT DESCRIPTION: Measurement of TG (TGase inhibitory activity, monodansyl cadaverine / N,N-dimethylcasein fluorescence, FDSS 3000)
- Assay type: biochemical
- SETUP CONDITIONS: TGase activity with compound (10 mM, 1 μL in 0.1 ml enzyme reaction solution); DMSO control taken as 100
Provide the recorded TGase activity remaining (% of DMSO control = 100) for the entries that follow.

{"COMPOUND": "COCOCc1ccc(B(OCCN(C)C)c2ccc(Oc3ccc(B(OCCN(C)C)c4ccccc4)cc3)cc2)cc1 [Example 167]", "RESULT": 21}
{"COMPOUND": "NCCOB(c1ccc(Oc2ccc(B(OCCN)c3cccc4ccccc34)cc2)cc1)c1cccc2ccccc12 [Example 441]", "RESULT": "−1"}
{"COMPOUND": "NCCOB(c1cc(Cl)ccc1F)c1cc(Cl)ccc1F [Example 100]", "RESULT": 119}
{"COMPOUND": "OB(Cc1ccc(OCc2ccc(B(O)c3ccccc3)cc2)cc1)Cc1ccc(OCc2ccc(B(O)c3ccccc3)cc2)cc1 [Example 187]", "RESULT": 106}
{"COMPOUND": "N#Cc1ccc(B(O)c2ccc(C#N)cc2)cc1 [Example 305, 4,4′-di(cyano-phenyl)borinic acid]", "RESULT": 94}
{"COMPOUND": "NCCOB(c1ccccc1)c1cccc(COCc2cccc(B(OCCN)c3ccccc3)c2)c1 [Example 8]", "RESULT": 24}

Items follow; give TGase activity remaining (% of DMSO control = 100) for each.
1. NCCC(N)C(=O)OB(c1ccccc1)c1ccccc1 (centres unmarked) [Example 263, diphenyl(2,4-diaminolactonate-O,N)borane]
2. c1ccc(B(OCCN2CCN(CCOB(c3ccccc3)c3ccccc3)CC2)c2ccccc2)cc1 [Example 239]
3. NCCOB(c1cc(F)cc(Cl)c1)c1cc(F)cc(Cl)c1 [Example 99]
4. Cc1ccc(B(OCC(N)c2ccccc2)c2ccc(C)c(Cl)c2)cc1Cl (centres unmarked) [Example 214]

Solution:
1. 146
2. 126
3. 109
4. −7

Problem: Look up TGase activity remaining (% of DMSO control = 100) of NCC(OB(c1ccc(F)c(F)c1)c1ccc(F)c(F)c1)c1ccccc1 (centres unmarked) [Example 88] and report it.
Solution: 82
